Assay: The compound was tested for the antiviral activity against Rauscher murine leukemia virus
Assay type: functional
Conditions: Mus musculus; read-out: ED50 (the source's name)
quantity.kind: EC50 (µM)
Numeric answer only, unit µM assumed.

Before answering, review these 2 worked examples.
In [3]: df
Out[3]:
                                   molecule  unit_string  reported
0  CC(C)N(/C=N\c1ccn(C2CCC(CO)O2)c(=O)n1)C(C)C (stereo not drawn)           µM      20.6
1  Nc1ccn([C@H]2CC[C@@H](CO)O2)c(=O)n1 [ZALCITABINE]           µM       2.2

// returns reported EC50 for input Nc1ccn(C2CC(F)C(CO)O2)c(=O)n1 (stereo not drawn) 158
